Recorded Plant response rating (0 to 100), Duck salad, one value per entry.
Test system: duck salad
Assay: Test C flood test plant response rating 0 to 100
Format: in vivo, Heteranthera limosa
Details: Rate 16 g/ha; under POSTEMERGENCE head (flood test species)
Answer as a number with no unit attached.

## Input Would you mind telling me what Plant response rating (0 to 100), Duck salad value was observed for C=C(Cl)COc1cc(-c2nn3c(c2Cl)CCCC3)c(F)cc1Cl [Compound 40] ?
## Output 0

## Input Would you mind telling me what Plant response rating (0 to 100), Duck salad value was observed for CCN1C(=O)COc2cc(F)c(-c3nn4c(c3Cl)CCCC4)cc21 [Compound 54] ?
## Output 35

## Input Tell me the measured Plant response rating (0 to 100), Duck salad of C#CCOc1cc(-c2nn3c(c2Br)CCCC3)c(F)cc1Cl [Compound 26] , please.
## Output 60

Further cases:
## Input What value of Plant response rating (0 to 100), Duck salad has been recorded for this entry: COC(=O)c1cc(-c2nn3c(c2Cl)CCCC3)c(F)cc1Cl [Compound 43]
## Output 0

## Input GET /values?readout=Plant response rating (0 to 100), Duck salad&item= CCC(C)Oc1cc(-c2nn3c(c2Cl)CCCC3)c(F)cc1Cl (centres unmarked) [Compound 48]
## Output 10

## Input What does the record list as Plant response rating (0 to 100), Duck salad for CC(C)Oc1cc(-c2nn3c(c2Br)CCCC3)c(F)cc1Cl [Compound 38] ?
## Output 20

## Input Given the entry COCN1C(=O)COc2cc(F)c(-c3nn4c(c3Br)CCCC4)cc21 [Compound 67] , report its measured Plant response rating (0 to 100), Duck salad.
## Output 0

## Input Which Plant response rating (0 to 100), Duck salad is listed for C#CC(C)Oc1cc(-c2nn3c(c2Cl)CCCC3)c(F)cc1Cl (centres unmarked) [Compound 36] ?
## Output 0

* * *

Test system: broadleaf signalgrass
Experiment: Test G preemergence/postemergence greenhouse plant response rating 0 to 100
Type: in vivo, Brachiaria plantaginea
Details: POSTEMERGENCE, Rate 250 g/ha, 0 to 100 scale
Quick list: Plant response rating, Brdlf Sgnlgrass per entry.

Solved cases below.
## Input Requested read-out: Plant response rating, Brdlf Sgnlgrass. Entry: CC(C)N1C(=O)COc2cc(F)c(-c3nn4c(c3Cl)CCCC4)cc21
## Output 0

## Input Name the reported Plant response rating, Brdlf Sgnlgrass value associated with the compound COc1cc(-c2nn3c(c2Cl)CCCC3)c(F)cc1Cl
## Output 0

## Input Data request, read-out Plant response rating, Brdlf Sgnlgrass, for C=CCN1C(=O)COc2cc(F)c(-c3nn4c(c3Cl)CCCC4)cc21
## Output 0

## Input Which Plant response rating, Brdlf Sgnlgrass value belongs to Fc1cc(Cl)c(OCc2ccccc2)cc1-c1nn2c(c1Cl)CCCC2 ?
## Output 0

Turning now to a further record.
## Input // query Plant response rating, Brdlf Sgnlgrass value for entry CCCOc1cc(-c2nn3c(c2Cl)CCCC3)c(F)cc1Cl
## Output 0

* * *

Test system: giant foxtail
Test: Test C preemergence/postemergence greenhouse plant response rating 0 to 100
Type: in vivo, Setaria faberii
Settings: POSTEMERGENCE; Rate 1 g/ha
Parameter: Plant response rating (0 to 100), Giant foxtail. Scope: all listed entries.
# respond with the number and nothing more

## Input Fill blank: measured Plant response rating (0 to 100), Giant foxtail of the compound CC(C)Oc1cc(-c2nn3c(c2Br)CCCC3)c(F)cc1Cl is ____.
## Output 20

## Input # Plant response rating (0 to 100), Giant foxtail lookup, item CCCN1C(=O)COc2cc(F)c(-c3nn4c(c3Cl)CCCC4)cc21
## Output 20

## Input May I ask what Plant response rating (0 to 100), Giant foxtail has been recorded for COCN1C(=O)COc2cc(F)c(-c3nn4c(c3Cl)CCCC4)cc21 ?
## Output 20

Further cases:
## Input Give its Plant response rating (0 to 100), Giant foxtail value. Item: COCN1C(=O)COc2cc(F)c(-c3nn4c(c3Br)CCCC4)cc21
## Output 10

## Input What does the data say about its Plant response rating (0 to 100), Giant foxtail? Entry: C#CC(C)N1C(=O)COc2cc(F)c(-c3nn4c(c3Cl)CCCC4)cc21 (centres unmarked)
## Output 20
